Conditions: buffer; pH 7.4; 200.0 µM
Reported solubility kinetic values for the following molecules.
Numeric only. Scale: µg/mL

Guide cases for solubility kinetic, answers given:
O=C(NCc1csc(-c2cccs2)n1)c1ccsc1 : 45.9
COCC(C)NC(=S)N1CCN(c2ccccc2Cl)CC1 (stereo unspecified) : 48.5

Turning now to a further record.
Ask: Supply recorded solubility kinetic for CCc1c(O)nc(SC2CC(=O)N(c3ccc(F)c(Cl)c3)C2=O)[nH]c1=O (stereo unspecified) here.
Reply: 55.7

====

Conditions: buffer; pH 7.4; 200.0 µM
READOUT TYPE: solubility kinetic

// below: answered compounds
Cc1csc(NC(=O)Cc2c(F)cccc2Cl)n1 : 36.4 µg/mL
O=C1CCC(C(=O)OCC(=O)Nc2ccc(Cl)cc2C(F)(F)F)=NN1 : > 56.7 µg/mL
O=C(CN1C(=O)NC2NC(=O)NC21)NC1CCCCC1 (stereo unspecified) : > 42.2 µg/mL
O=C(O)C(Cc1ccccc1)N1C(=O)c2c(Cl)c(Cl)c(Cl)c(Cl)c2C1=O (stereo unspecified) : > 65 µg/mL
Nc1cc(N2CCCC2)c(Cl)cc1[N+](=O)[O-] : 3 µg/mL

Okay, next one:
Ask: Specify solubility kinetic for COC(=O)Nc1ccc(S(=O)(=O)N2CCCc3cccc(O)c32)cc1 and stop.
Reply: 2.1 µg/mL

====

Settings: buffer; pH 7.4; 200.0 µM
Listed below: solubility kinetic values for each entry.
State the answer as a number, implicitly in µg/mL.

Ask: Assign solubility kinetic to the following record: COc1cccc(OC)c1C(=O)Nc1cccc(S(=O)(=O)Nc2ccccc2Cl)c1
Reply: 47.1

Ask: Answer with the recorded solubility kinetic of CN(C(=O)Nc1cnccc1C(F)(F)F)C1CCCCC1 only.
Reply: 41.1

Ask: Please give measured solubility kinetic of the following entry: CC1CC(C)CN(S(=O)(=O)CC23CCC(CC2=O)C3(C)C)C1 (centres undefined)
Reply: 44.8

Ask: // Input: CCCc1cc(=O)[nH]c(SCC(=O)Nc2ccc(Br)cc2)n1 . Output its solubility kinetic only.
Reply: 1.1

====

Settings: buffer; pH 7.4; 200.0 µM
// map solubility kinetic onto a label; ranges interval 1 = under 7 µg/mL, interval 2 = from 7 µg/mL up to 40 µg/mL, interval 3 = 40 µg/mL and over

O=C(NCc1ccccc1)c1ccc(NC(=O)c2ccco2)cc1 : interval 1
COc1ccc(C2CC(=O)C=C(NCc3ccc4c(c3)OCO4)C2)cc1 (centres undefined) : interval 2
CN(C)c1cc(Nc2ccc(O)cc2)c([N+](=O)[O-])c2nonc12 : interval 1
CN(CCO)CC(O)Cn1cnc2c1c(=O)n(C)c(=O)n2C.O=C(O)c1cccnc1 (centres undefined) : interval 3
CCC1Oc2ccccc2N(CC(=O)NC2CCCCC2)C1=O (centres undefined) : interval 3
O=[N+]([O-])c1ccc(N2CCN(c3ccccc3)CC2)cc1 : interval 1
COCC(=O)Nc1nc(-c2ccc([N+](=O)[O-])cc2)cs1 : interval 2
Cc1ccc(S(=O)(=O)N2CCCCC2)cc1NC(=O)CSc1nc(N)cc(=O)[nH]1 : interval 3
c1ccc(CCN2CCC3(CC2)OCCO3)cc1 : interval 2
CCOC(=O)c1cc(C(=O)NC(C)c2ccccc2)c(C)[nH]c1=O (centres undefined) : interval 1

Field: next molecule
Ask: Returns: class label. Input: CC(NC(=O)CSc1ncccc1C(=O)O)C1CC2CCC1C2 (centres undefined)
Reply: interval 3

====

Settings: buffer; pH 7.4; 200.0 µM
READOUT TYPE: solubility kinetic (µg/mL)
Numeric only. Scale: µg/mL

CCCOc1ccccc1NC(=O)c1ccc([N+](=O)[O-])cc1 : 4.1
Cc1nc(SCC(=O)Nc2ccc3[nH]c(=O)[nH]c3c2)nc(C)c1C : 15

Ask: Look up and state reported solubility kinetic for CCn1c2ccccc2c2cc(NC(=O)c3cc(C)on3)ccc21
Reply: 2.3

Ask: Tell me its solubility kinetic given CCc1ccc(/C=C2\SC(N3CCOCC3)=NC2=O)cc1 as the entry.
Reply: 24.9

Ask: Could you please provide reported solubility kinetic for N/C(=N\OC(=O)c1ccc(OCC(F)(F)F)nc1)c1ccc(Cl)cc1 ? Thanks!
Reply: 1.2

Ask: Please look at this molecule and report its solubility kinetic: Cc1cccc(-c2noc(CCCC(=O)NC3CCCC3)n2)c1
Reply: 42.2

Ask: Specify measured solubility kinetic for CC(C)Cc1nc(N2CCNCC2)c(C#N)c2c1CCC2 .
Reply: 41.1

Ask: In one line, give reported solubility kinetic of the entry CCN(Cc1cc2ccccc2[nH]c1=O)C(=O)c1cccc([N+](=O)[O-])c1 .
Reply: 39.3

Ask: Read the entry COc1cccc(C(=O)N2CCN=C2SC)c1 and write its reported solubility kinetic.
Reply: 35.1

Ask: State its solubility kinetic: Cl.NCCSC1CC(=O)N(c2ccc(F)cc2)C1=O (stereo not given)
Reply: 29.5

Ask: Identify the reported solubility kinetic for the following entry. CC1CCC(N2CCN(c3ccc([N+](=O)[O-])cc3)CC2)CC1 (stereo not given)
Reply: 19.1

Ask: // fetch solubility kinetic given entry c1ccc(-c2nc3ccccc3[nH]2)cc1
Reply: 21.9

Ask: Name the recorded solubility kinetic of the molecule listed here: C=CCNC(=O)c1ccc(-c2nc3ccccc3nc2-c2ccccc2)cc1
Reply: 11.7

Ask: Answer with reported solubility kinetic of Cc1ccc(C(=O)CCC(=O)Nc2cc(C)ccn2)cc1
Reply: 6.2

====

We begin with a simple list: items and their reported solubility kinetic.
Conditions: buffer; pH 7.4; 200.0 µM
The answer is to be given in µg/mL; state only the numeric part.

Recorded solubility kinetic, per entry:
N/C(COc1cc(Cl)cc(Cl)c1)=N\O : 34.3
CC(=O)c1c(C)[nH]c(C(=O)COC(=O)COc2ccccc2)c1C : 16.3
CCn1c(SCc2ccc(F)cc2)nc2ccccc2c1=O : 0.5
Oc1ccccc1C=NCCN=Cc1ccccc1O : 27.6
Nc1ccc2nc(SCc3ccccc3F)sc2c1 : 16

Ask: In one line, give reported solubility kinetic of the entry CCOc1ccccc1NC(=O)CCNC(=O)c1ccco1 .
Reply: 42.6

Ask: In one line, give reported solubility kinetic of the entry O=C(COC(=O)CNC(=O)c1ccccc1Cl)NC1CC1 .
Reply: 37.4

====

Details: buffer; pH 7.4; 200.0 µM
READOUT TYPE: solubility kinetic

Worked set:
O=C(COC(=O)C1=COCCO1)Nc1ccc(Cl)cn1 : > 44.8 µg/mL
COc1cc(/C=C\C(=O)O)cc(S(=O)(=O)N2CCCCCC2)c1OC : 52.8 µg/mL
CN1CCN(c2ccc(NC(=O)c3ccco3)cc2Cl)CC1 : 45.3 µg/mL
CC(=O)Nc1ccc(/C=C(\C#N)S(=O)(=O)c2ccc(C)cc2)cc1 : 5.2 µg/mL
Cc1ccc(CNS(=O)(=O)c2c(C)n(C)c(=O)n(C)c2=O)cc1 : > 50.6 µg/mL

Ask: Provide only the value of recorded solubility kinetic for COc1ccc(C(=O)NCCCSc2ccccc2)cc1F
Reply: 2.5 µg/mL

Ask: Retrieve solubility kinetic measured for O=C(CN1CCCc2ccccc21)NCCc1ccc(Cl)cc1 and print it.
Reply: 19.3 µg/mL

Ask: Give the value of solubility kinetic reported for the following: Cc1cc(Cl)ccc1OCCCC(=O)OCC(N)=O
Reply: 42.3 µg/mL

====

Conditions: buffer; pH 7.4; 200.0 µM
READOUT TYPE: log10(solubility kinetic) (log10 of the value in µg/mL)
Parameter value (number): base-10 log of solubility kinetic in µg/mL.

Ask: Provide log10(solubility kinetic) value for the following molecule: CC(C)CC(=O)Nc1ccccc1N1CCN(c2ccccc2)CC1
Reply: 0.20

Ask: Tell me measured log10(solubility kinetic) for CC(C)n1cnc2cc(NCc3ccccc3O)ccc21 please.
Reply: 1.51

Ask: Identify measured log10(solubility kinetic) associated with COc1ccccc1C1CCN(C(=O)c2ccco2)CC1
Reply: 1.53

Ask: Please give the documented log10(solubility kinetic) of Cc1cc(C)nc(Nc2cc([N+](=O)[O-])ccc2C)n1.Cl
Reply: 0.73

Ask: Give log10(solubility kinetic) for CCc1ccc(CNC(=O)C(=O)NCC2CCCO2)cc1 (stereo not given)
Reply: 1.25

Ask: Tell us which log10(solubility kinetic) value is on record for O=C(Nc1ccc(-c2cnco2)cc1)c1ccc(F)cc1F
Reply: -0.10

Ask: Complete the entry with log10(solubility kinetic) for COc1ccccc1N(Cc1ccccc1)S(=O)(=O)c1cccc(C(=O)N2CCCCC2)c1
Reply: 1.05

Ask: Give me measured log10(solubility kinetic), please, for this molecule: Cc1c(Cl)ccc2c(C(N)=O)cc(-c3ccccn3)nc12
Reply: -0.70

Ask: Identify measured log10(solubility kinetic) corresponding to Cc1ccc(C)c(N2CN(CCC3=CCCCC3)CNC2=S)c1
Reply: 1.59

Ask: Consider the molecule COc1ccc(Cc2c([O-])[nH]c(=O)[nH]c2=O)c(OC)c1.[NH4+] . State its measured log10(solubility kinetic).
Reply: 1.63

Ask: Name the recorded log10(solubility kinetic) of the item O=C1/C(=C/c2ccncc2)SC(=S)N1Cc1ccccc1 in your answer.
Reply: 0.23

Ask: Return log10(solubility kinetic) (reported value) for this molecule: Cc1ccc(S(=O)(=O)C2(C(=O)NCCc3ccccc3)CC2)cc1
Reply: 1.70

The origin of these recorded values is PubChem BioAssay AID1996.
